# Assay system: PARP-1 (Homo sapiens)
# Construct: purchased Trevigen 4668-500-01
# Sequence (P09874 whole entry): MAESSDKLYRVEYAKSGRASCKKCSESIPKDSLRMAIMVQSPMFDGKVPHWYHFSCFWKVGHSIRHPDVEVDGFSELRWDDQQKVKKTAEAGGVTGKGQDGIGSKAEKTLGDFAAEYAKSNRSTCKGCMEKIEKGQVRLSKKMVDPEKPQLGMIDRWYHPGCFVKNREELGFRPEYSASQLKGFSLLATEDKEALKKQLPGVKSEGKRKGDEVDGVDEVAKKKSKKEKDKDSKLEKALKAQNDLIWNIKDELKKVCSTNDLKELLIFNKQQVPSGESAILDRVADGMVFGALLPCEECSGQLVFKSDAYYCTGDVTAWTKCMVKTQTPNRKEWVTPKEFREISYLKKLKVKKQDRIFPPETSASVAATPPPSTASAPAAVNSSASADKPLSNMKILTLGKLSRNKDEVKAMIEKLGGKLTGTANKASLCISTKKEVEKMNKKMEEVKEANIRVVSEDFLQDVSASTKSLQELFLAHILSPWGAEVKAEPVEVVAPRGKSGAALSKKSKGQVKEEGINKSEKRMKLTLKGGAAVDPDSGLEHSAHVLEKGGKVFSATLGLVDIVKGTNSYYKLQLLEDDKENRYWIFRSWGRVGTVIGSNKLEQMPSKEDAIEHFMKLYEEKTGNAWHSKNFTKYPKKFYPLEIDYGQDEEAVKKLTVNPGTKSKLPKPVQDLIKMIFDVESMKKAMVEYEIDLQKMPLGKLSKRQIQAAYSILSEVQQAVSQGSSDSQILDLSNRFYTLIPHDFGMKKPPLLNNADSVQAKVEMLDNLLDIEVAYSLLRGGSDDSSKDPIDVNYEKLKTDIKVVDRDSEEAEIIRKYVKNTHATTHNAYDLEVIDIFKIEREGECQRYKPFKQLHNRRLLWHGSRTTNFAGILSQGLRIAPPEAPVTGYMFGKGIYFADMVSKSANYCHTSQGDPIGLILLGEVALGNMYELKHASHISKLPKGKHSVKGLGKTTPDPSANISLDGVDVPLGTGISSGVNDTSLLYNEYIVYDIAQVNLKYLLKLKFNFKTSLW
# Procedure text: PARP-1 SPA assay
# Type: biochemical
Structures can show the parent of a compound that is named as a salt.
Measured metric: IC50

Which IC50 is reported for this compound? COC(=O)CN1CCN(C(=O)c2cc(Cc3n[nH]c(=O)c(C)c3C)ccc2F)CC1=O [Example 24, trifluoroacetate]
5 to 25 nM

Which IC50 is reported for this compound? CCc1cc(Cc2ccc(F)c(C(=O)N3CCN(C4CCCOC4)C(=O)C3)c2)n[nH]c1=O (stereo not shown) [Example 133, trifluoroacetate]
5 to 25 nM

Which IC50 is reported for this compound? Cc1c(Cc2ccc(F)c(C(=O)N3CC(=O)N4CCCC[C@H]4C3)c2)n[nH]c(=O)c1C(F)(F)F [Example 135, trifluoroacetate]
5 to 25 nM

Which IC50 is reported for this compound? Cc1c(Cc2ccc(F)c(C(=O)N3CCN(CC(F)(F)F)C(=O)C3)c2)n[nH]c(=O)c1C [Example 72, trifluoroacetate]
5 to 25 nM

Which IC50 is reported for this compound? Cc1c(Cc2ccc(F)c(C(=O)N3CC(=O)N(C4CCCC4)[C@H](C)C3)c2)n[nH]c(=O)c1C [Example 115]
5 to 25 nM

Which IC50 is reported for this compound? Cc1c(Cc2ccc(F)c(C(=O)N3CC(=O)N(c4ccccc4)[C@H](C)C3)c2)n[nH]c(=O)c1C (single isomer, unassigned) [Example 78 (LL4B)]
< 5 nM

Which IC50 is reported for this compound? O=C(c1cc(Cc2cc(C(F)(F)C(F)(F)F)c(=O)[nH]n2)ccc1F)N1CCN(C2CCCC2)C(=O)C1 [Example 81]
5 to 25 nM

Which IC50 is reported for this compound? Cc1c(Cc2ccc(F)c(C(=O)N3CC(=O)N(c4ccccc4)[C@@H](C)C3)c2)n[nH]c(=O)c1C (single isomer, unassigned) [78 (LL4A)]
5 to 25 nM

Which IC50 is reported for this compound? Cc1c(Cc2ccc(F)c(C(=O)N3CC(=O)N(CC(F)(F)F)C(C)C3)c2)n[nH]c(=O)c1C (stereo not shown) [Example 139, trifluoroacetate]
5 to 25 nM

Which IC50 is reported for this compound? Cc1c(Cc2ccc(F)c(C(=O)N3CCN(c4ccc(F)cc4)C(=O)C3)c2)n[nH]c(=O)c1C [Example 40, trifluoroacetate]
5 to 25 nM

Which IC50 is reported for this compound? Cc1c(Cc2ccc(F)c(C(=O)N3CCN(CCc4cccc(F)c4)C(=O)C3)c2)n[nH]c(=O)c1C [Example 59, trifluoroacetate]
< 5 nM

Which IC50 is reported for this compound? Cc1c(Cc2ccc(F)c(C(=O)N3CCN([C@H]4CCOC4)C(=O)C3)c2)n[nH]c(=O)c1C [Example 113]
5 to 25 nM

Which IC50 is reported for this compound? CCc1c(Cc2ccc(F)c(C(=O)N3CCN(C4CCCCC4)C(=O)C3)c2)n[nH]c(=O)c1C(F)(F)F [Example 39, trifluoroacetate]
< 5 nM

###

# Assay system: PARP-1 (Homo sapiens)
# Construct: purchased Trevigen 4668-500-01
# Procedure text: PARP-1 TCA assay (inhibitory activity on human PARP-1)
# Type: biochemical
# Recorded conditions: human PARP-1, TCA assay
pIC50: −log10 of the molar value.
pIC50 of 8 or higher: condition met. Under 8: condition not met.

Would you say Cc1c(Cc2ccc(F)c(C(=O)N3CCN(c4ccccc4)C(=O)C3)c2)n[nH]c(=O)c1C [drawing 25] shows pIC50 at minimum 8?
condition met

Would you say `Cc1c(Cc2ccc(F)c(C(=O)N3CC=C(c4ccc(F)cc4)CC3)c2)n[nH]c(=O)c1C` shows pIC50 at minimum 8?
condition not met

Would you say `Cc1c(Cc2ccc(F)c(C(=O)N3CCN(c4ccc(F)cc4)CC3)c2)n[nH]c(=O)c1C` shows pIC50 at minimum 8?
condition not met

Would you say Cc1c(Cc2ccc(F)c(C(=O)N3CCN(C4CCCCC4)C(=O)C3)c2)n[nH]c(=O)c1C [drawing 29] shows pIC50 at minimum 8?
condition met

Would you say Cc1c(Cc2ccc(F)c(C(=O)N3CCN(c4ccc(F)cc4)C(=O)C3)c2)n[nH]c(=O)c1C [drawing 26] shows pIC50 at minimum 8?
condition met

###

# Assay system: PARP-1 (Homo sapiens)
# Construct: purchased Trevigen 4668-500-01
# Procedure text: PARP-1 SPA assay
# Assay type: biochemical
Where a name gives a salt, the structure may show the parent alone.
Provide the reported IC50 of each item.

Which IC50 is reported for this compound? Cc1c(Cc2ccc(F)c(C(=O)N3CCN(C4CCC(C)(C)CC4)C(=O)C3)c2)n[nH]c(=O)c1C [Example 50, trifluoroacetate]
5 to 25 nM

Which IC50 is reported for this compound? Cc1c(Cc2ccc(F)c(C(=O)N3C[C@@H]4C[C@H]3C(=O)N4c3ccccc3)c2)n[nH]c(=O)c1C [Example 41, trifluoroacetate]
25 to 150 nM

Which IC50 is reported for this compound? Cc1c(Cc2ccc(F)c(C(=O)N3CCN(C4CCCC(C)(C)C4)C(=O)C3)c2)n[nH]c(=O)c1C (stereo not shown) [Example 51, trifluoroacetate]
5 to 25 nM

Which IC50 is reported for this compound? O=C(c1cc(Cc2cc(C(F)(F)F)c(=O)[nH]n2)ccc1F)N1CC(=O)N2CCCC[C@@H]2C1 (single isomer, unassigned) [92 (ZZ2)]
5 to 25 nM

Which IC50 is reported for this compound? Cc1c(Cc2ccc(F)c(C(=O)N3CCN(C4CCC(F)(F)C4)C(=O)C3)c2)n[nH]c(=O)c1C (stereo not shown) [Example 49, trifluoroacetate]
< 5 nM

Which IC50 is reported for this compound? Cc1c(Cc2ccc(F)c(C(=O)N3CC(=O)N4CCCC[C@@H]4C3)c2)n[nH]c(=O)c1C [Example 90, trifluoroacetate]
< 5 nM

Which IC50 is reported for this compound? Cc1c(Cc2ccc(F)c(C(=O)N3CCN(CC4(c5ccccc5)CCOCC4)C(=O)C3)c2)n[nH]c(=O)c1C [Example 56, trifluoroacetate]
5 to 25 nM

Which IC50 is reported for this compound? `C[C@H]1CN(C(=O)c2cc(Cc3cc(C(F)(F)F)c(=O)[nH]n3)ccc2F)CC(=O)N1C1CCCC1`
5 to 25 nM

Which IC50 is reported for this compound? Cc1c(Cc2ccc(F)c(C(=O)N3CCN(C4CCOCC4)C(=O)C3)c2)n[nH]c(=O)c1C [Example 120, trifluoroacetate]
5 to 25 nM

Which IC50 is reported for this compound? Cc1c(Cc2ccc(F)c(C(=O)N3CCN(C4CCOC4)C(=O)C3)c2)n[nH]c(=O)c1C(F)(F)F (stereo not shown) [Example 142, trifluoroacetate]
< 5 nM

Which IC50 is reported for this compound? Cc1c(Cc2ccc(F)c(C(=O)N3CCN(CCF)C(=O)C3)c2)n[nH]c(=O)c1C [Example 58, trifluoroacetate]
5 to 25 nM

Which IC50 is reported for this compound? O=C(c1cc(Cc2cc(C(F)(F)F)c(=O)[nH]n2)ccc1F)N1CC(=O)N2CCCCC2C1 (racemic)
5 to 25 nM

Which IC50 is reported for this compound? Cc1c(Cc2ccc(F)c(C(=O)N3CCN(C4CCCCCC4)C(=O)C3)c2)n[nH]c(=O)c1C [Example 73, trifluoroacetate]
< 5 nM

###

# Tested on: BRCA-1 silenced HeLa cells (HeLa shBRCA1-GFP)
# Procedure text: Proliferation assay in BRCA-1 silenced HeLa cells
# Assay type: cell-based
# Recorded conditions: Homo sapiens; BRCA1 silenced HeLa cells, 168 hours; read-out: CC50 in the BRCA1 silenced HeLa cells
Counter-ions that a name gives are not always drawn.
Provide the reported CC50 of each item.

Which CC50 is reported for this molecule? Cc1c(Cc2ccc(F)c(C(=O)N3CC(=O)N(C4CCC4)C(C)C3)c2)n[nH]c(=O)c1C (stereo not drawn)
< 50 nM

Which CC50 is reported for this molecule? Cc1c(Cc2ccc(F)c(C(=O)N3CCN(c4ccc(F)c(F)c4)C(=O)C3)c2)n[nH]c(=O)c1C [Example 11, trifluoroacetate]
< 50 nM

Which CC50 is reported for this molecule? Cc1c(Cc2ccc(F)c(C(=O)N3CC(=O)N([C@H]4CCOC4)[C@H](C)C3)c2)n[nH]c(=O)c1C (single isomer, unassigned)
50 to 500 nM

###

# Tested on: BRCA-1 silenced HeLa cells (HeLa shBRCA1-GFP)
# Procedure text: Proliferation assay in BRCA-1 silenced HeLa cells
# Assay type: cell-based
# Recorded conditions: Homo sapiens; BRCA1 silenced HeLa cells, 168 hours; read-out: CC50 in the BRCA1 silenced HeLa cells
Counter-ions that a name gives are not always drawn.
Measured metric: CC50

Which CC50 is reported for this compound? Cc1c(Cc2ccc(F)c(C(=O)N3CCN(C4CCOC4)C(=O)C3)c2)n[nH]c(=O)c1C(F)(F)F (stereo not shown) [Example 142, trifluoroacetate]
< 50 nM

Which CC50 is reported for this compound? Cc1c(Cc2ccc(F)c(C(=O)N3CCN(CC(F)(F)F)C(=O)C3)c2)n[nH]c(=O)c1C [Example 72, trifluoroacetate]
50 to 500 nM

Which CC50 is reported for this compound? O=C(c1cc(Cc2cc(C(F)(F)F)c(=O)[nH]n2)ccc1F)N1CCN(C2CCCCC2)C(=O)C1 [Example 27, trifluoroacetate]
50 to 500 nM

Which CC50 is reported for this compound? Cc1cc(C)cc(CN2CCN(C(=O)c3cc(Cc4n[nH]c(=O)c(C)c4C)ccc3F)CC2=O)c1 [Example 19, trifluoroacetate]
50 to 500 nM

Which CC50 is reported for this compound? Cc1cc(C)cc(N2CCN(C(=O)c3cc(Cc4n[nH]c(=O)c(C)c4C)ccc3F)CC2=O)c1 [Example 23, trifluoroacetate]
50 to 500 nM

Which CC50 is reported for this compound? CCC1CN(C(=O)c2cc(Cc3n[nH]c(=O)c(C)c3C)ccc2F)CC(=O)N1C1CCCC1 (stereo not shown) [Example 186]
< 5000 nM

Which CC50 is reported for this compound? Cc1c(Cc2ccc(F)c(C(=O)N3CC(=O)N4CCOCC4C3)c2)n[nH]c(=O)c1C(F)(F)F (stereo not shown) [Example 136, trifluoroacetate]
50 to 500 nM
